- Target System: purine receptors (Cavia porcellus, UniProt P47745)
- Construct: Ilea were removed from sacrificed guinea pigs and placed in organ baths; from tissue; host or cells: guinea pig ileum
- Test Name: Purine receptor antagonism in guinea pig ileum twitch test (agonist 2-chloroadenosine, Schild regression)
- Test Conditions: value in brackets beside pA2, guinea pig ileum
Endpoint: slope (Schild regression)
Note: the reply should be a number with no unit written.

# example entries with known answers
• CCCCn1c(=O)c2nc(-c3ccc(/C=C/C(=O)O)cc3)[nH]c2n(CCCC)c1=O [Example 14] = 1.0
• O=C(O)/C=C/c1ccc(-c2nc3c(=O)n(Cc4ccccc4)c(=O)n(Cc4ccccc4)c3[nH]2)cc1 [Example 15] = 0.9
• CCCn1c(=O)c2nc(-c3ccc(/C=C/C(=O)O)cc3)[nH]c2n(CCC)c1=O [Example 6] = 0.9

Here is another compound to look at.
Value lookup for slope (Schild regression); key = CCCn1c(=O)n(C)c(=O)c2nc(-c3ccc(/C=C/C(=O)O)cc3)[nH]c21 [Example 11]
1.0

* * *

- Target System: purine receptors (Cavia porcellus, UniProt P47745)
- Construct: Ilea were removed from sacrificed guinea pigs and placed in organ baths; from tissue; host or cells: guinea pig ileum
- Sequence (P47745 1-326): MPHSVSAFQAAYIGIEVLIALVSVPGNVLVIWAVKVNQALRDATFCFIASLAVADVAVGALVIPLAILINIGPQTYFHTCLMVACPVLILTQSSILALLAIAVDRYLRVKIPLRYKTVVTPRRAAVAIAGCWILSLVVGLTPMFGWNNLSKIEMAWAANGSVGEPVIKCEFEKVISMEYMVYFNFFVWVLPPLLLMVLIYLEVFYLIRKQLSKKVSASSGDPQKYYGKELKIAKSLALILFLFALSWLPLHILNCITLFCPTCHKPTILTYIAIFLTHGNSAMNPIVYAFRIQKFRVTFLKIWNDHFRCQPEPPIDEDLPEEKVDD
- Test Name: Purine receptor antagonism in guinea pig ileum twitch test (agonist 2-chloroadenosine, Schild regression)
- Test Conditions: value in brackets beside pA2, guinea pig ileum
Endpoint: slope (Schild regression)
// return just the number, without any unit appended

• CC(C)Cn1c(=O)c2nc(-c3ccc(/C=C/C(=O)O)cc3)[nH]c2n(CC(C)C)c1=O [Example 19] = 1.0
• Cn1c(=O)c2[nH]cnc2n(C)c1=O [THEOPHYLLINE, 1,3-dimethylxanthine, reference compound] = 1.1

Shift focus to the following entry.
Need slope (Schild regression) of Cn1c(=O)c2nc(-c3ccc(/C=C/C(=O)O)cc3)[nH]c2n(Cc2ccccc2)c1=O [Example 18] , thanks.
0.9

* * *

Below, each entry is listed alongside its reported LD50.
- Test Name: Standard LD50 test, intraperitoneal, mice
- Test Conditions: mouse, in vivo, ip

Example molecules with recorded LD50:
• CCCCn1c(=O)n(C)c(=O)c2nc(-c3ccc(/C=C/C(=O)O)cc3)[nH]c21 = > 100 mg/kg
• CCCn1c(=O)c2nc(-c3ccc(/C=C/C(=O)O)cc3)[nH]c2n(CCC)c1=O = > 500 mg/kg
• CC(C)Cn1c(=O)[nH]c(=O)c2nc(-c3ccc(/C=C/C(=O)O)cc3)[nH]c21 = > 100 mg/kg

What value of LD50 has been reported for the following molecule? Cn1c(=O)c2nc(-c3ccc(/C=C/C(=O)O)cc3)[nH]c2n(Cc2ccccc2)c1=O
> 100 mg/kg

Field request: LD50 | item: Cn1c(=O)c2nc(-c3ccc(/C=C/C(=O)O)cc3)[nH]c2n(C)c1=O
> 500 mg/kg

Entry under review: CCCCn1c(=O)c2nc(-c3ccc(/C=C/C(=O)O)cc3)[nH]c2n(CCCC)c1=O . Reported LD50?
> 100 mg/kg

Which measured LD50 value corresponds to CC(C)Cn1c(=O)n(C)c(=O)c2nc(-c3ccc(/C=C/C(=O)O)cc3)[nH]c21 ?
> 100 mg/kg
